Molecular target: DNA repair protein RAD52 homolog (Homo sapiens)
Test: RAD52 DNA annealing inhibitors, primary screen, biochemical, FRET, single point, set 2 (AID 651710)
Settings: recombinant RAD52 DNA annealing, FRET fluorescence; at 18.7 µM; stronger effect = higher value
Hit rate of the full screen: of about 360,000 compounds, about 1,600 (0.44%) were called active. Many of the other results were omitted from the sample, so actives are more common in it than they were.
Observation Type: inhibition (%)
Unit % implied. Number only.

Example molecules with recorded inhibition:
O=C(c1cnccn1)N1CC(=O)N2[C@H](C1)[C@@H](c1ccc(C#CC3CCCCC3)cc1)[C@@H]2CO    13.7
CC(=O)N(C)C[C@H]1[C@H](c2ccc(C3=CCCCC3)cc2)[C@H](CO)N1CC1CC1    17.9
COc1cccc2sc3cc(NCC[C@@H]4CCCN4C)ccc3c(=O)c12    -48.1
COc1ccc2c3c([nH]c2c1)[C@H](CO)N(C(=O)c1ccncc1)CC31CCN(C(=O)c2ccncc2)CC1    2.16
CCN(CC)CCN(C(=O)c1ccc2c(c1)CCCC2)c1nc2c(OC)cccc2s1    53.9

Enquiry: Requested field: inhibition. Item: `NC(N)=Nc1nc(-c2ccccc2)c2cc(Cl)ccc2n1`
Return: 84.7

Enquiry: Requested field: inhibition. Item: `CCCN(C)C[C@H]1Oc2cc(C#CC3CCCC3)ccc2S(=O)(=O)N([C@H](C)CO)C[C@@H]1C`
Return: -63.3

Enquiry: Requested field: inhibition. Item: `COCC#Cc1cnc2c(c1)C(=O)N([C@H](C)CO)C[C@H](C)[C@@H](CN(C)C(=O)Nc1cc(F)ccc1F)O2`
Return: -15.1

Enquiry: Requested field: inhibition. Item: CCN1CCCC1CNC(=O)c1cc2cc(OC)c(OC)cc2[nH]1 (configuration not stated)
Return: 2.51

Enquiry: Requested field: inhibition. Item: `C[C@@H]1CN([C@H](C)CO)C(=O)Cc2cc(N(C)C)ccc2O[C@H]1CN(C)S(C)(=O)=O`
Return: -4.07

Enquiry: Requested field: inhibition. Item: `COc1ccc2c3c([nH]c2c1)[C@H](CO)N(C(=O)c1ccccc1)CC31CCN(S(=O)(=O)c2cccs2)CC1`
Return: 2.57

Enquiry: Requested field: inhibition. Item: `CCCCCCCCCCOC(=O)Cn1c(COc2ccc(C)cc2)[n+](C)c2ccccc21`
Return: 79.8

Enquiry: Requested field: inhibition. Item: `CN(C)CCNC(=O)c1ccc(-c2cn3c(-c4ccc(Oc5ccccc5)cc4)cnc3cn2)cc1`
Return: 85.7

====

Target: DNA repair protein RAD52 homolog (Homo sapiens) (UniProt P43351)
Sequence (P43351 whole entry, looked up): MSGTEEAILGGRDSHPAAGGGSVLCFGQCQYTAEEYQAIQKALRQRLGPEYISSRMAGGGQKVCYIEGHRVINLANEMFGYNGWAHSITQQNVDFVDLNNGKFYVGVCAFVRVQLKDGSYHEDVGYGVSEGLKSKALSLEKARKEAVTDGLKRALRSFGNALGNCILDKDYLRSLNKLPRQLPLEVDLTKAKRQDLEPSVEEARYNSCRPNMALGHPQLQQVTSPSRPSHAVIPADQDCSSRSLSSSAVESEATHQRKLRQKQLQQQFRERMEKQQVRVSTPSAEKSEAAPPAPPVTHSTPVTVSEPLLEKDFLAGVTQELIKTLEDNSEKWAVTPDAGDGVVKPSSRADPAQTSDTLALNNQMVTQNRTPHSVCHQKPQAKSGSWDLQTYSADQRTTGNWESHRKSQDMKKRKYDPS
Assay: RAD52 DNA annealing inhibitors, primary screen, biochemical, FRET, single point, set 2 (AID 651710)
Details: recombinant RAD52 DNA annealing, FRET fluorescence; at 18.7 µM
The whole screen tested about 360,000 compounds, of which about 1,600 (0.44%) were called active.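 The calls were made as follows: active = every replicate showing at least 50% inhibition; inconclusive = mean inhibition at least 50% but not in every replicate; inactive = the rest.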 The sample holds actives, similar compounds and a random draw of the others, so the mix is not that of the screen.
API: response.call in Y (active), N (inactive)

Sample answers from the record:
CN(C)C(=O)C[C@H]1CC[C@H](NC(=O)NC2CCCC2)[C@@H](CO)O1    N
O=C(Cc1ccccn1)N[C@@H]1CC[C@H](CCn2cc(-c3ccc(F)cc3)nn2)O[C@@H]1CO    N
O=C(N[C@H]1CC[C@@H](CCNS(=O)(=O)c2ccccc2)O[C@@H]1CO)c1cnccn1    N
C[C@H](NC(=O)C[C@@H]1C=C[C@H](NC(=O)CN2CCOCC2)[C@H](CO)O1)c1ccccc1    N
Cc1ccc2nc(CN(C)C(=O)[C@@H](Cc3ccccc3)NC(=O)[C@H]3O[C@@H](n4ccc(=O)[nH]c4=O)[C@H](O)[C@@H]3O)[nH]c2c1    N
COc1ccc(-n2nnnc2SCC(=O)c2ccc(OC)c(OC)c2)cc1    N
Cc1cccc(C(=O)OC(C)CN2CCN(C)CC2)c1 (stereo not drawn)    N
CCCC#Cc1ccc([C@@H]2[C@@H](CO)N3C(=O)CN(C(=O)Nc4ccc(F)cc4)C[C@@H]23)cc1    N
C[C@H](O)C#Cc1ccc([C@@H]2[C@H](CO)N3CCCCN(CC4CC4)C[C@@H]23)cc1    N
O=C1c2ccccc2-c2ncnc3c(N4CCOCC4)cc(N4CCOCC4)c1c23    N

Enquiry: Can you look up the reported call for `O=C(C1CCCC1)N1CCCCN2[C@@H](CO)[C@H](c3ccc(-c4cccc(F)c4)cc3)[C@@H]2C1` for me?
Return: N

Enquiry: Can you look up the reported call for `C[C@@H]1CN([C@@H](C)CO)C(=O)c2cc(NC(=O)Nc3ccccc3)ccc2O[C@@H]1CN(C)Cc1ccccc1` for me?
Return: N

====

Target: DNA repair protein RAD52 homolog (Homo sapiens)
Assay: RAD52 DNA annealing inhibitors, primary screen, biochemical, FRET, single point, set 2 (AID 651710)
Conditions: recombinant RAD52 DNA annealing, FRET fluorescence; at 18.7 µM; stronger effect = higher value
The whole screen tested about 360,000 compounds, of which about 1,600 (0.44%) were called active. For the sample, actives were picked, then their nearest neighbours and some compounds at random.
Each entry below lists one item and its recorded inhibition value.
Unit % implied. Number only.

Example compounds with recorded inhibition:
CCCNC(=O)[C@@H]1[C@@H](CO)[C@@H]2Cn3c(cccc3=O)[C@H]1N2C(=O)C1CC1    -0.051
CO[C@@H]1CN(C)C(=O)c2cc(NS(=O)(=O)c3cn(C)cn3)ccc2OC[C@@H](C)N(CCC(F)(F)F)C[C@H]1C    7.94

Proceeding to the next compound to report its inhibition.
Enquiry: Requested field: inhibition. Item: `O=C(C1CCCCC1)N1CC2(C1)[C@H](c1ccccc1)[C@H](CO)N2CC1CCCC1`
Return: -23.5

====

Each entry below lists one item and its recorded inhibition value.
Biological target: DNA repair protein RAD52 homolog (Homo sapiens)
Test: RAD52 DNA annealing inhibitors, primary screen, biochemical, FRET, single point, set 2 (AID 651710)
Conditions: recombinant RAD52 DNA annealing, FRET fluorescence; at 18.7 µM; stronger effect = higher value
Hit rate of the full screen: of about 360,000 compounds, about 1,600 (0.44%) were called active. The sample as a whole holds a higher share of actives than the screen did.

Example molecules with recorded inhibition:
CNC(=O)c1cccc2nc3ccccc3nc12    2.55% (inactive)
CN(C)C(CNC(=O)c1ccc(OCc2cn3ccccc3n2)cc1)c1ccco1 (centres undefined)    -13.9% (inactive)
Cn1cnc(S(=O)(=O)N2CCCCN3[C@H](CO)[C@@H](c4ccc(-c5ccc(F)cc5)cc4)[C@@H]3C2)c1    -27.5% (inactive)

Enquiry: Requested field: inhibition. Item: CCN1CCCC1CNC(=O)c1ccc2c(c1)NC(=O)/C(=C\c1ccccc1F)S2 (centres undefined)
Return: 87.1% (active)

====

Target: DNA repair protein RAD52 homolog (Homo sapiens) (UniProt P43351)
Assay: RAD52 DNA annealing inhibitors, primary screen, biochemical, FRET, single point, set 2 (AID 651710)
Details: recombinant RAD52 DNA annealing, FRET fluorescence; at 18.7 µM
Out of some 360,000 compounds screened, about 1,600 (0.44%) were called active.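 Rule for the calls: active = every replicate showing at least 50% inhibition; inconclusive = mean inhibition at least 50% but not in every replicate; inactive = the rest.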 The sample as a whole holds a higher share of actives than the screen did.
API: response.call in label 1 for active, label 0 for inactive

Sample answers from the record:
COC1=C(N2CCOCC2)C(=O)c2ccccc2C1=O    label 1
CCCC(=O)Nc1ccc2c(c1)C(=O)N(C)C[C@H](OC)[C@@H](C)CN[C@H](C)CO2    label 0
Cc1noc(C)c1S(=O)(=O)Nc1cccc2c1O[C@@H](CN(C)S(=O)(=O)c1cn(C)cn1)[C@@H](C)CN([C@H](C)CO)C2=O    label 0
CO[C@@H]1CN(C)C(=O)c2ccc(NC(C)=O)cc2OC[C@@H](C)N(Cc2ccc(-c3ccccn3)cc2)C[C@H]1C    label 0
Cc1ccc(C(=O)N/C(=C/c2ccc(-c3cccc([N+](=O)[O-])c3)o2)C(=O)NCCCN(C)C)cc1    label 1
Cc1oc2c(c1C(=O)N1CCOCC1)C(=O)c1ccccc1C2=O    label 0

Here is another compound to look at.
Enquiry: Can you look up the reported call for `COc1ccc(S(=O)(=O)Nc2ccc3c(c2)C(=O)N([C@H](C)CO)C[C@@H](C)[C@H](CN(C)Cc2ccccc2)O3)cc1` for me?
Return: label 0

====

Target: DNA repair protein RAD52 homolog (Homo sapiens) (UniProt P43351)
Experiment: RAD52 DNA annealing inhibitors, primary screen, biochemical, FRET, single point, set 2 (AID 651710)
Details: recombinant RAD52 DNA annealing, FRET fluorescence; at 18.7 µM; stronger effect = higher value
The whole screen tested about 360,000 compounds, of which about 1,600 (0.44%) were called active. The sample holds actives, similar compounds and a random draw of the others, so the mix is not that of the screen.
Each entry below lists one item and its recorded inhibition value.
Unit % implied. Number only.

Cc1cccc(-c2nc3ccc(C(=O)NCCN4CCN(C)CC4)cc3nc2-c2cccc(C)c2)c1    68
COCC(=O)Nc1ccc2c(c1)OC[C@H](C)N(Cc1ccccc1OC)C[C@@H](C)[C@@H](OC)CN(C)C2=O    5.08

Enquiry: Requested field: inhibition. Item: `COc1ccc(NC(=O)Nc2cccc3c2O[C@H](CN(C)C(=O)Nc2ccc(F)cc2)[C@@H](C)CN([C@@H](C)CO)C3=O)cc1`
Return: -2.48

Enquiry: Requested field: inhibition. Item: `CN(C)CC(=O)N1[C@@H](C#N)[C@@H](c2ccccc2-c2ccccc2F)[C@@H]1CO`
Return: -4.36

Enquiry: Requested field: inhibition. Item: `CN(C)CC(=O)Nc1ccc2c(c1)[C@@H]1C[C@H](CC(=O)NCc3ccc(-c4ccccc4)cc3)O[C@@H](CO)[C@@H]1O2`
Return: 43.1
